Biological target: Kappa-type opioid receptor (Cavia porcellus, UniProt P41144)
Sequence (P41144 whole entry): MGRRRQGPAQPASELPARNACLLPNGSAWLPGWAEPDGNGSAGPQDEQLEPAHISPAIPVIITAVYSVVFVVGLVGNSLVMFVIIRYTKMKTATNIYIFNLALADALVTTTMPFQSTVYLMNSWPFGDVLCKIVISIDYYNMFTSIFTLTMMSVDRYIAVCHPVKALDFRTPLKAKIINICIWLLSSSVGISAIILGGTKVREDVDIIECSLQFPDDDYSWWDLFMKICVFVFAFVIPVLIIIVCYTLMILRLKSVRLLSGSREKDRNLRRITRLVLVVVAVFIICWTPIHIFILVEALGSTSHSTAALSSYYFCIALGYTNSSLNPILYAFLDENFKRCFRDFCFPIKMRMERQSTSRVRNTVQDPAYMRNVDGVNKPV
Assay: Binding affinity was measured by the displacement of [3H]- EK in guinea pig brain membrane of opioid receptor kappa
Type: cell membranes
measured_quantity: Ki (nM)
Hi! Could you send only the number? It should be in nM, unit omitted.

Oc1ccc2c3c1O[C@H]1c4[nH]c5c(F)cccc5c4C[C@@]4(O)[C@@H](C2)N(CC2CC2)CC[C@]314 :: 321

Please look at the following compound next.
Entry `Oc1ccc2c3c1O[C@H]1c4[nH]c5ccc(F)cc5c4C[C@@]4(O)[C@@H](C2)N(CC2CC2)CC[C@]314` — recorded Ki = 15

###

The molecules listed here are annotated with their IC50 ratio.
Target: Kappa-type opioid receptor (Cavia porcellus) (UniProt P41144)
Sequence (P41144 whole entry): as above
Experiment: Opioid receptor kappa 1 antagonistic activity was measured by the displacement of ethylketazocine in the guinea pig ileum at a concentration of 100 nM
Assay type: functional, tissue-based

Known results for molecules:
COc1ccc2c3c1O[C@H]1c4[nH]c5ccccc5c4C[C@@]4(O)[C@@H](C2)N(CC2CC2)CC[C@]314 :: 0.6
Oc1ccc2c3c1O[C@H]1c4[nH]c5c(O)cccc5c4C[C@@]4(O)[C@@H](C2)N(CC2CC2)CC[C@]314 :: 1.4
Oc1ccc2c3c1O[C@H]1c4c(c5ccccc5n4-c4ccccc4)C[C@@]4(O)[C@@H](C2)N(CC2CC2)CC[C@]314 :: 6.7
Cc1ccc2[nH]c3c(c2c1)C[C@@]1(O)[C@H]2Cc4ccc(O)c5c4[C@@]1(CCN2CC1CC1)[C@H]3O5 :: 1.4

`Oc1ccc2c3c1O[C@H]1c4[nH]c5cc(F)ccc5c4C[C@@]4(O)[C@@H](C2)N(CC2CC2)CC[C@]314` on Kappa-type opioid receptor (Cavia porcellus) (UniProt P41144) gives IC50 ratio = 1.6

`C=CCN1CC[C@]23c4c5ccc(O)c4O[C@H]2c2[nH]c4ccccc4c2C[C@@]3(O)[C@H]1C5` on Kappa-type opioid receptor (Cavia porcellus) (UniProt P41144) gives IC50 ratio = 2.2

`COc1ccc2[nH]c3c(c2c1)C[C@@]1(O)[C@H]2Cc4ccc(O)c5c4[C@@]1(CCN2CC1CC1)[C@H]3O5` on Kappa-type opioid receptor (Cavia porcellus) (UniProt P41144) gives IC50 ratio = 9.2

###

Biological target: Opioid receptors; mu & delta (Homo sapiens) (UniProt P41143+P35372)
Sequence (P35372 whole entry, looked up): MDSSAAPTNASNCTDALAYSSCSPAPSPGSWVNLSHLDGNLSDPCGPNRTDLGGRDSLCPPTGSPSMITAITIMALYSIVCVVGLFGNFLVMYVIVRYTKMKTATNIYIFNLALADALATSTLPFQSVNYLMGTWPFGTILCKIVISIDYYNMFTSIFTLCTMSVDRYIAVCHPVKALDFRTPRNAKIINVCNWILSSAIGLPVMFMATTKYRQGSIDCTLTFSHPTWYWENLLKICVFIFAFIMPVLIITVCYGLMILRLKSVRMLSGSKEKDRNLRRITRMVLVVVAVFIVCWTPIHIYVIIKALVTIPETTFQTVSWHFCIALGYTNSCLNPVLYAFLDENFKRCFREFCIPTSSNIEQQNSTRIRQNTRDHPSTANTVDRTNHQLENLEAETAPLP
Sequence (P41143 whole entry, looked up): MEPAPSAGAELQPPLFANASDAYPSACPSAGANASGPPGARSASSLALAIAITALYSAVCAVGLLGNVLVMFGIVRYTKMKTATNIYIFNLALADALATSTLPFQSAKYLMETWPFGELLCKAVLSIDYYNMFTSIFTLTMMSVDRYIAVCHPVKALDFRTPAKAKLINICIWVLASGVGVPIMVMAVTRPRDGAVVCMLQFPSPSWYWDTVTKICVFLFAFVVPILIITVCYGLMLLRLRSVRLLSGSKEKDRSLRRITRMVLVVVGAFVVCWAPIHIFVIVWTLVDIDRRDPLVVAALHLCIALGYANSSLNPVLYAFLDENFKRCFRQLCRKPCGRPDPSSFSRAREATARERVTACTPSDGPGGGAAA
Test: Selectivity ratio was determined from Ke value of Opioid receptor mu 1 and Opioid receptor delta 1
Assay type: protein assay
Settings: Cavia porcellus
Entry flag: met if Selectivity ratio reaches 50; not met if it does not.

These solved cases illustrate the format of a correct answer.
Oc1ccc2c3c1O[C@H]1c4[nH]c5c(F)cccc5c4C[C@@]4(O)[C@@H](C2)N(CC2CC2)CC[C@]314 :: met
COc1cccc2c3c([nH]c12)[C@@H]1Oc2c(O)ccc4c2[C@@]12CCN(CC1CC1)[C@H](C4)[C@]2(O)C3 :: not met
CCOc1cccc2c3c([nH]c12)[C@@H]1Oc2c(O)ccc4c2[C@@]12CCN(CC1CC1)[C@H](C4)[C@]2(O)C3 :: not met
Oc1ccc2[nH]c3c(c2c1)C[C@@]1(O)[C@H]2Cc4ccc(O)c5c4[C@@]1(CCN2CC1CC1)[C@H]3O5 :: not met

Is the recorded value of Selectivity ratio equal to or greater than 50 for this molecule? `C=CCN1CC[C@]23c4c5ccc(O)c4O[C@H]2c2[nH]c4ccccc4c2C[C@@]3(O)[C@H]1C5`
met

Is the recorded value of Selectivity ratio equal to or greater than 50 for this molecule? `Oc1ccc2c3c1O[C@H]1c4[nH]c5c(ccc6ccccc65)c4C[C@@]4(O)[C@@H](C2)N(CC2CC2)CC[C@]314`
met

Is the recorded value of Selectivity ratio equal to or greater than 50 for this molecule? `Oc1ccc2c3c1O[C@H]1c4[nH]c5c(Br)cccc5c4C[C@@]4(O)[C@@H](C2)N(CC2CC2)CC[C@]314`
met

Is the recorded value of Selectivity ratio equal to or greater than 50 for this molecule? `CC(=O)O[C@@]12Cc3c([nH]c4ccccc34)[C@@H]3Oc4c(O)ccc5c4[C@@]31CCN(CC1CC1)[C@@H]2C5`
met

Is the recorded value of Selectivity ratio equal to or greater than 50 for this molecule? `CC(C)(S)[C@@H](NC(=O)[C@H](Cc1ccc(O)cc1)NC(=O)CNC(=O)[C@H](NC(=O)[C@@H](N)Cc1ccccc1)C(C)(C)S)C(=O)O`
met

Is the recorded value of Selectivity ratio equal to or greater than 50 for this molecule? `Cc1ccc2c3c([nH]c2c1)[C@@H]1Oc2c(O)ccc4c2[C@@]12CCN(CC1CC1)[C@H](C4)[C@]2(O)C3`
not met
